# system tested: T1, human gpr-54 receptor (human, UniProt Q969F8 1-398)
# T1 construct: whole, on cells; CHO cells stably expressing the human gpr-54 receptor came from Prof; G. Vassart; also called kisspeptin receptor; AXOR12
# T1 sequence (Q969F8 whole entry): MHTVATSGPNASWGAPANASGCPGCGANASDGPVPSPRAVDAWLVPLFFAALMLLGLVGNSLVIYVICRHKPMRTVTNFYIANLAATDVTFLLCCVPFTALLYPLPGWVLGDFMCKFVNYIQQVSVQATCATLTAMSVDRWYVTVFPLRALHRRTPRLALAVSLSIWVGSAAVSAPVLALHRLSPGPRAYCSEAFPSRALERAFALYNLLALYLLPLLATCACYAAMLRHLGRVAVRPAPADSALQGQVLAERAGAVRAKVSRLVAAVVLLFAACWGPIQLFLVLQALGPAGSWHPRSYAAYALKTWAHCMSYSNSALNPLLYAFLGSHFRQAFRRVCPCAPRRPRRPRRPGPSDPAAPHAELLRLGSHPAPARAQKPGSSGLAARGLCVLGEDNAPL
# measurement protocol: whole-cell competition binding against 125I-kisspeptin, CHO cells stably transfected with hGPR54 (CPM) [187]
pIC50: −log10 of the molar value. No end group written: not given here.
quantity name: pIC50

>>> observed_value("YNWNSFGLRW-NH2 (kisspeptin-10 analogue) [187]")
6.68
